# Study Target: T1, human MSLN protein endogenously expressed on OVCAR3 tumor cells (human, UniProt Q13421 296-598)
# T1 construct: whole, on cells; Endogenous target on OVCAR3 cells; kept apart from the recombinant full-length construct; also called mesothelin
# T1 sequence (Q13421 other isoform, or with tags, fused parts or gaps): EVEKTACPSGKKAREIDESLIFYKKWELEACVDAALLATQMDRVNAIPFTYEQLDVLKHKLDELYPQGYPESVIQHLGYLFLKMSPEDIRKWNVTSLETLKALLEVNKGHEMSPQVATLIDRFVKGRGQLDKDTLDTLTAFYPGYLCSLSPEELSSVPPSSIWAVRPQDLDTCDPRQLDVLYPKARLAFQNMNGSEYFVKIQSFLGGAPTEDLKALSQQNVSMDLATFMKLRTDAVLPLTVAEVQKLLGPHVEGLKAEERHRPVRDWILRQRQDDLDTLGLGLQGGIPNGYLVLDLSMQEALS
# Method Description: FACS on OVCAR3 cells
pEC50: −log10 of the molar value.
Quantity Kind: pEC50

INSERT INTO results (binder, val) VALUES
  ('S009-F2.16.10 (antibody, human IgG1, kappa, V domains shown, human-murine chimeric antibody, human IgG1/kappa constant regions) VH: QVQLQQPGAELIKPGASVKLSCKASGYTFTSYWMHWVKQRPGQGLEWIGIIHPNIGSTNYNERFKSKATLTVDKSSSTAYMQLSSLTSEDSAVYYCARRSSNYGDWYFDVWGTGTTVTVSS VL: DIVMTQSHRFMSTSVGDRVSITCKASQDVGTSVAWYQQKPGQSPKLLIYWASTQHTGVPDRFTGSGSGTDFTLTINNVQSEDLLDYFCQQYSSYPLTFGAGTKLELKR', 8.53),
  ('S009-F2-56.12 (antibody, human IgG1, kappa, V domains shown, human-murine chimeric antibody, human IgG1/kappa constant regions) VH: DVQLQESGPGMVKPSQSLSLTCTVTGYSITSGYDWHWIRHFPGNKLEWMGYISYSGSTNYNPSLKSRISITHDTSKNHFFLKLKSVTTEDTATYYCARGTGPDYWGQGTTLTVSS VL: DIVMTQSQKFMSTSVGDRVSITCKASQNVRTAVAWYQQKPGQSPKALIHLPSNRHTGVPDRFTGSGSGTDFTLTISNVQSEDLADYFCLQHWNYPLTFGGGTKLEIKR', 9.27);
